Source: ChEMBL document CHEMBL1135180

# test_system: Neuraminidase (Influenza A virus (A/Puerto Rico/8/1934(H1N1)), UniProt P03468)
# Sequence (P03468 whole entry): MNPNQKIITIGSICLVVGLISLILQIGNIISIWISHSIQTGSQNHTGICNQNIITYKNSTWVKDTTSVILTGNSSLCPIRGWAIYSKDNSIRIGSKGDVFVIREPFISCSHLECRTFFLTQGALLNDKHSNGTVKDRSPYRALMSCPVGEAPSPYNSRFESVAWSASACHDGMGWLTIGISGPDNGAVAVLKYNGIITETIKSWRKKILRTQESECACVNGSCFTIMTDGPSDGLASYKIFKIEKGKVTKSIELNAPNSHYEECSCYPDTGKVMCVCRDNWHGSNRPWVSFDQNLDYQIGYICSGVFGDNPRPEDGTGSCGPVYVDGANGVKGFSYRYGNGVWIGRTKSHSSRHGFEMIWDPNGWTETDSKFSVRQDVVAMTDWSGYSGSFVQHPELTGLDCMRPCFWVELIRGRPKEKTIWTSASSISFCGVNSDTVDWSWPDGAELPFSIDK
# protocol_description: Inhibition of sialidase activity
Please respond with yes (1) when measured IC50 is strictly beneath 70 nM, and with no (0) in all other cases.

{"mol_smiles": "CC(=O)N[C@H]1[C@H]([C@H](N=[N+]=[N-])[C@H](O)CO)OC(C(=O)O)=C[C@@H]1NC(=N)N.O=C(O)C(F)(F)F", "label_value": "yes (1)"}
{"mol_smiles": "CC(=O)N[C@H]1[C@H]([C@H](N)[C@H](O)CO)OC(C(=O)O)=C[C@@H]1NC(=N)N.O=C(O)C(F)(F)F", "label_value": "no (0)"}
{"mol_smiles": "CC(=O)N[C@H]1[C@H]([C@H](F)[C@H](O)CO)OC(C(=O)O)=C[C@@H]1NC(=N)N.O=C(O)C(F)(F)F", "label_value": "yes (1)"}
{"mol_smiles": "CC(=O)N[C@@H]([C@@H]1OC(C(=O)O)=C[C@H](N=C(N)N)[C@H]1NC(C)=O)[C@H](O)CO", "label_value": "yes (1)"}
{"mol_smiles": "CCO[C@@H]([C@@H]1OC(C(=O)O)=C[C@H](N=C(N)N)[C@H]1NC(C)=O)[C@H](O)CO.O=C(O)C(F)(F)F", "label_value": "yes (1)"}
{"mol_smiles": "CCC(=O)N[C@@H]([C@@H]1OC(C(=O)O)=C[C@H](N=C(N)N)[C@H]1NC(C)=O)[C@H](O)CO.O=C(O)C(F)(F)F", "label_value": "yes (1)"}
{"mol_smiles": "CC(=O)N[C@@H]1[C@@H](NC(=N)N)C=C(C(=O)O)O[C@H]1C(F)(F)[C@H](O)CO.O=C(O)C(F)(F)F", "label_value": "no (0)"}
{"mol_smiles": "CCCCCCCC(=O)N[C@@H]([C@@H]1OC(C(=O)O)=C[C@H](N=C(N)N)[C@H]1NC(C)=O)[C@H](O)CO.O=C(O)C(F)(F)F", "label_value": "no (0)"}
{"mol_smiles": "CC(=O)N[C@@H]1[C@@H](N=C(N)N)C=C(C(=O)O)O[C@H]1C[C@H](O)CO.O=C(O)C(F)(F)F", "label_value": "no (0)"}
